Biological target: Recombinant human TLR7 (Homo sapiens, UniProt Q9NYK1)
Construct: TLR7 in vector pUNO, blasticidin selection
Sequence (Q9NYK1 27-1049): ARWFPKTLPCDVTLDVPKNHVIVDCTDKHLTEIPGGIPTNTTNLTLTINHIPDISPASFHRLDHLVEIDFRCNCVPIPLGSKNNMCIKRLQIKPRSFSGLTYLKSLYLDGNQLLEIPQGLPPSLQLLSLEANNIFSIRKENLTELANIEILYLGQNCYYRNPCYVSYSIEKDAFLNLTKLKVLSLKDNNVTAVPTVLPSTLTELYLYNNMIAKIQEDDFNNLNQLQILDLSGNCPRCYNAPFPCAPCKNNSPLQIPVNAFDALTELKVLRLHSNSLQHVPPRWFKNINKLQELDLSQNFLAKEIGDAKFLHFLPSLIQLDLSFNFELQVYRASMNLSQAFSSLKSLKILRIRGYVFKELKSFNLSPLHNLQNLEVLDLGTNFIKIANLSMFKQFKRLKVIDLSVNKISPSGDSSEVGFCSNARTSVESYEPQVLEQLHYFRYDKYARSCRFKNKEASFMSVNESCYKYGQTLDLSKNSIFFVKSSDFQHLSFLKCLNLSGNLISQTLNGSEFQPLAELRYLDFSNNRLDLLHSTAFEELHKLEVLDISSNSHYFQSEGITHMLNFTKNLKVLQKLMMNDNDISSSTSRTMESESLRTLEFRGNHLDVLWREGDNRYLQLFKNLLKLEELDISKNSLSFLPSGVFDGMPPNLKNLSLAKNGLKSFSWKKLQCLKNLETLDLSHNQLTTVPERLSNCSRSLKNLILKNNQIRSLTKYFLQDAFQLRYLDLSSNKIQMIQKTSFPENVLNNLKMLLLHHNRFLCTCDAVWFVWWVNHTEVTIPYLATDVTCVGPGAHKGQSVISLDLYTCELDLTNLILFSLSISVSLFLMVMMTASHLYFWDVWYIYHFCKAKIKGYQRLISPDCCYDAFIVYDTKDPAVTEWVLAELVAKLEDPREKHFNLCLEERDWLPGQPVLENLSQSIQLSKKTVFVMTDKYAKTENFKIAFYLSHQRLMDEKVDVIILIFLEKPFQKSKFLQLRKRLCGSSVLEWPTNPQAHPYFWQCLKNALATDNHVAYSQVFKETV
Experiment: Human TLR7 Assay (SEAP reporter);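 further: SEAP driven by an NFkB-responsive composite promoter, pEC50 read at half of each compound's own maximal SEAP induction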
Settings: HEK293 cell line stably expressing human TLR7 and pNiFty2-SEAP reporter; SEAP induction after overnight incubation at 37° C., 0.1% (v/v) DMSO
Could you please report measured pEC50 for the items listed next?
Please report pEC50 as the negative decimal logarithm of the molar concentration, giving only the number.

Q) What measured pEC50 goes with `CCCCCNc1nc(N)nc(C)c1CCCN(Cc1cccc(CC(=O)OC)c1)C(=O)CCC(=O)OC` ?
A) 6.00

Q) Try the molecule `CCCCCNc1nc(N)nc(C)c1CCCNCc1ccc(CC(=O)OC)cc1`
A) 6.00

Q) Quick one: `CC[C@H](O)CNc1nc(N)nc(C)c1Cc1ccc(CC(=O)OCC2CCN(C)CC2)cc1`
A) 6.00
